- Experiment Summary: IV pharmacokinetics
- Format: in vivo, Sprague Dawley rats
- Conditions: Sprague Dawley, rat, in vivo, iv, 2 mg/kg, normal saline (compounds marked * in 1% NMP and 99% normal saline), read-out: Vss
Endpoint: Vd (L/kg)
Give a bare numeral; the unit L/kg is implied.

// Vd lookup, key: CN1CCN(Cc2ccccc2)C2(CCNC2=O)C1 (stereo not drawn) [ES-316]
1.75

// Vd lookup, key: C[C@@H](O)[C@H](N)C(=O)N1CCN(Cc2ccccc2)C2(CNC2=O)C1 (single isomer, unassigned) [EL-1]
2.12

// Vd lookup, key: CN1CCN(C(=O)OC(C)(C)C)CC12CN(CC(N)=O)C2=O (stereo not drawn) [ER-117]
1.44

// Vd lookup, key: C[C@@H](O)[C@H](N)C(=O)N1CCNC2(CNC2=O)C1 (single isomer, unassigned) [EK-1]
0.4

// Vd lookup, key: CC(=O)N1CCN(Cc2ccccc2)C2(CCNC2=O)C1 (stereo not drawn) [ES-319]
1.74

// Vd lookup, key: C[C@@H](O)[C@H](N)C(=O)N1CCNC2(CCNC2=O)C1 (stereo partly drawn) [ES-336]
0.73

====

- Test system: rats' response (reduced floating time)
- Experiment Summary: Porsolt forced swim test
- Assay type: in vivo, Sprague Dawley rats
- Conditions: 1 wk post-dose, 0.1 mg/kg; Yes = p<=0.05 from vehicle
Endpoint: Significance vs. vehicle

Solved cases (4 shown):
{"columns": ["Molecule", "Significance vs. vehicle"],
 "data": [
  ["C[C@@H](O)[C@H](N)C(=O)N1CCNC2(CCNC2=O)C1 (some centres unmarked) [ES-336]", "Yes"],
  ["CN1CCN(Cc2ccccc2)C2(CCNC2=O)C1 (centres unmarked) [ES-316]", "Yes"],
  ["CC(=O)N1CCN(Cc2ccccc2)C2(CCNC2=O)C1 (centres unmarked)", "Yes"],
  ["CN1CCN(Cc2ccccc2)C2(CCNC2=O)C1 (centres unmarked) [ES-315]", "No"]
]}

Next molecule, please.
// Significance vs. vehicle lookup, key: C[C@@H](O)[C@H](N)C(=O)N1CCNC2(CCNC2=O)C1 (some centres unmarked) [ES-335]
Yes

====

- Experiment Summary: IV pharmacokinetics
- Format: in vivo, Sprague Dawley rats
- Conditions: Sprague Dawley, rat, in vivo, iv, 2 mg/kg, normal saline (compounds marked * in 1% NMP and 99% normal saline)
Returns: string. Value is True if measured AUC(0-t) is below 2000 ng·h/mL, and False if it is greater than or equal to it.

{"columns": ["Molecule", "Class Label"],
 "data": [
  ["O=C1NCCC12CNCCN2 (stereo not drawn)", "True"],
  ["CN1CCN(Cc2ccccc2)C2(CCNC2=O)C1 (stereo not drawn)", "True"],
  ["O=C1NCC12CNCCN2Cc1ccccc1 (single isomer, unassigned)", "True"],
  ["CC(C)C(=O)N1CCN(Cc2ccccc2)C2(CCNC2=O)C1 (stereo not drawn)", "True"],
  ["C[C@@H](O)[C@H](N)C(=O)N1CCN(Cc2ccccc2)C2(CNC2=O)C1 (single isomer, unassigned)", "False"],
  ["C[C@@H](O)[C@H](N)C(=O)N1CCNC2(CNC2=O)C1 (single isomer, unassigned)", "False"],
  ["C[C@@H](O)[C@H](N)C(=O)N1CCNC2(CCNC2=O)C1 (stereo partly drawn)", "False"],
  ["CN1CCN(C(=O)OC(C)(C)C)CC12CN(CC(N)=O)C2=O (stereo not drawn)", "True"],
  ["CC(C)(C)OC(=O)N1CCNC2(C1)CN(CC(N)=O)C2=O (stereo not drawn)", "True"],
  ["CC(=O)N1CCN(Cc2ccccc2)C2(CCNC2=O)C1 (stereo not drawn)", "True"]
]}

Regarding C[C@@H](O)[C@H](N)C(=O)N1CCN(C)CC12CNC2=O (single isomer, unassigned) , kindly confirm whether its AUC(0-t) is beneath 2000 ng·h/mL.
False

Regarding CN1CCN(Cc2ccccc2)C2(CNC2=O)C1 (single isomer, unassigned) , kindly confirm whether its AUC(0-t) is beneath 2000 ng·h/mL.
True

====

- Experiment Summary: Oral pharmacokinetics (plasma, brain, CSF)
- Conditions: rat, per os, 10 mg/kg, plasma, normal saline (compounds marked * in 1% NMP and 99% normal saline)
Endpoint: Cmax (ng/mL)
Give a bare numeral; the unit ng/mL is implied.

Solved cases (3 shown):
{"columns": ["Molecule", "Reading Unit", "Cmax"],
 "data": [
  ["CN1CCN(Cc2ccccc2)C2(CNC2=O)C1 (single isomer, unassigned) [EG-2]", "ng/mL", 3526.63],
  ["C[C@@H](O)[C@H](N)C(=O)N1CCNC2(CNC2=O)C1 (single isomer, unassigned) [EK-2]", "ng/mL", 1910.5],
  ["O=C1NCC12CNCCN2Cc1ccccc1 (single isomer, unassigned) [ED-2]", "ng/mL", 1563.1]
]}

// Cmax lookup, key: CN1CCN(Cc2ccccc2)C2(CNC2=O)C1 (single isomer, unassigned) [EG-1]
700.4

====

- Experiment Summary: IV pharmacokinetics
- Assay type: in vivo, Sprague Dawley rats
- Conditions: Sprague Dawley, rat, in vivo, iv, 2 mg/kg, normal saline (compounds marked * in 1% NMP and 99% normal saline), read-out: C0
Returns: string. Value is Condition met if measured C0 is below 3000 ng/mL, and Condition not met if it is greater than or equal to it.

Solved cases (10 shown):
{"columns": ["Molecule", "Class Label"],
 "data": [
  ["CN1CCN(Cc2ccccc2)C2(CNC2=O)C1 (single isomer, unassigned)", "Condition met"],
  ["CC(=O)N1CCN(Cc2ccccc2)C2(CCNC2=O)C1 (stereo not drawn)", "Condition met"],
  ["CN1CCN(Cc2ccccc2)C2(CCNC2=O)C1 (stereo not drawn)", "Condition met"],
  ["CC(C)(C)OC(=O)N1CCNC2(C1)CN(CC(N)=O)C2=O (stereo not drawn)", "Condition not met"],
  ["C[C@@H](O)[C@H](N)C(=O)N1CCN(Cc2ccccc2)C2(CNC2=O)C1 (single isomer, unassigned)", "Condition not met"],
  ["CC(C)C(=O)N1CCN(Cc2ccccc2)C2(CCNC2=O)C1 (stereo not drawn)", "Condition met"],
  ["O=C1NCC12CNCCN2Cc1ccccc1 (single isomer, unassigned)", "Condition met"],
  ["C[C@@H](O)[C@H](N)C(=O)N1CCNC2(CNC2=O)C1 (single isomer, unassigned)", "Condition not met"],
  ["C[C@@H](O)[C@H](N)C(=O)N1CCNC2(CCNC2=O)C1 (stereo partly drawn)", "Condition not met"],
  ["CN1CCN(C(=O)OC(C)(C)C)CC12CN(CC(N)=O)C2=O (stereo not drawn)", "Condition met"]
]}

Regarding C[C@@H](O)[C@H](N)C(=O)N1CCN(C)CC12CNC2=O (single isomer, unassigned) , kindly confirm whether its C0 is beneath 3000 ng/mL.
Condition not met

Regarding O=C1NCCC12CNCCN2 (stereo not drawn) , kindly confirm whether its C0 is beneath 3000 ng/mL.
Condition not met

====

- Experiment Summary: IV pharmacokinetics
- Format: in vivo, Sprague Dawley rats
- Conditions: Sprague Dawley, rat, in vivo, iv, 2 mg/kg, normal saline (compounds marked * in 1% NMP and 99% normal saline)
Endpoint: half-life
Write the numeric value and append its unit.

{"columns": ["Compound", "half-life"],
 "data": [
  ["C[C@@H](O)[C@H](N)C(=O)N1CCN(C)CC12CNC2=O (single isomer, unassigned) [EJ-1]", "78 min"],
  ["CN1CCN(Cc2ccccc2)C2(CNC2=O)C1 (single isomer, unassigned) [EG-2]", "28.8 min"],
  ["C[C@@H](O)[C@H](N)C(=O)N1CCN(Cc2ccccc2)C2(CNC2=O)C1 (single isomer, unassigned) [EL-1]", "406 min"]
]}

Next compound, please.
// half-life lookup, key: CC(C)(C)OC(=O)N1CCNC2(C1)CN(CC(N)=O)C2=O (stereo not shown) [ER-141]
33 min

====

- Experiment Summary: IV pharmacokinetics
- Format: in vivo, Sprague Dawley rats
- Conditions: Sprague Dawley, rat, in vivo, iv, 2 mg/kg, normal saline (compounds marked * in 1% NMP and 99% normal saline)
Endpoint: clearance
Write the numeric value and append its unit.

Solved cases (3 shown):
{"columns": ["Molecule", "Result"],
 "data": [
  ["C[C@@H](O)[C@H](N)C(=O)N1CCN(Cc2ccccc2)C2(CNC2=O)C1 (single isomer, unassigned)", "0.441 L/h/kg"],
  ["O=C1NCC12CNCCN2Cc1ccccc1 (single isomer, unassigned)", "1.92 L/h/kg"],
  ["CN1CCN(Cc2ccccc2)C2(CNC2=O)C1 (single isomer, unassigned)", "5 L/h/kg"]
]}

// clearance lookup, key: CC(C)C(=O)N1CCN(Cc2ccccc2)C2(CCNC2=O)C1 (stereo not drawn)
3.52 L/h/kg

// clearance lookup, key: O=C1NCCC12CNCCN2 (stereo not drawn)
1.13 L/h/kg

// clearance lookup, key: CC(C)(C)OC(=O)N1CCNC2(C1)CN(CC(N)=O)C2=O (stereo not drawn)
1.19 L/h/kg
